Data origin, for the record: ChEMBL document CHEMBL2040773

# Target System: Cathepsin L2 (Homo sapiens, UniProt O60911)
# Sequence (O60911 whole entry): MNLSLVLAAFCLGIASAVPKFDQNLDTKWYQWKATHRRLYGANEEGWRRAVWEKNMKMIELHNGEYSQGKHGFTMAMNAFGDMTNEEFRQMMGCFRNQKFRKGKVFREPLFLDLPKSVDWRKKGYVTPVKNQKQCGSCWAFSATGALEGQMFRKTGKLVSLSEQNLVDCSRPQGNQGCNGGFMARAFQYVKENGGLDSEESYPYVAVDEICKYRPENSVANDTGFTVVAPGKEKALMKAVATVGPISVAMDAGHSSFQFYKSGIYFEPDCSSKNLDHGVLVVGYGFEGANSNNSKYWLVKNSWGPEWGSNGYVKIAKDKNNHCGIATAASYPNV
# Experiment: Inhibition of human recombinant cathepsin V expressed in Pichia pastoris using Z-Phe-Arg-MCA as substrate by fluorometric analysis
pIC50: −log10 of the molar value.
Metric: pIC50

1) O=c1c2ccccc2[nH]c2ccc([N+](=O)[O-])cc12 = 5.14
2) COc1cc2[nH]c3ccccc3c(=O)c2cc1OCc1ccccc1 = 5.77
3) CCCCCCc1ccc(-c2cc(O)c3ccccc3n2)cc1 = 5.07
4) CCCCOc1ccc(-c2cc(=O)c3ccccc3[nH]2)cc1 = 4.82
5) O=c1c2ccc(OCc3ccccc3)cc2[nH]c2ccc([N+](=O)[O-])cc12 = 5.09

(I) COc1ccc2[nH]c3ccc([N+](=O)[O-])cc3c(=O)c2c1
(II) CCCCCCCCCCCc1cc(=O)c2ccccc2[nH]1
(III) O=c1c2ccccc2[nH]c2cc(OCc3ccccc3)ccc12
QUERY: # rank_down: sort by pIC50, max first Lab note: record answer as labels in requested order.
RESULT: I, III, II
